Ref: the supplement of paper PMC6757056

Could you please report measured normalized RNA/DNA level without ligand (log10) for the items listed next?
B1: library; a variant is named by its letters at N, in order (parent)
chain: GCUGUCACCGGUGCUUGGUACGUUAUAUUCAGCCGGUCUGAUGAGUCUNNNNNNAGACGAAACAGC

Variants of: B1
experiment: normalized RNA/DNA level without ligand (relative to sTRSVctl = 100) (log10 (% of sTRSVctl)); HEK293T overexpressing SLC46A1; higher = less ribozyme self-cleavage, higher mRNA level
cond: without (6R,S)-folinic acid; ligand present: no
Reply with just the number.

Given the entry GUCUUC , report its measured normalized RNA/DNA level without ligand (log10).
2.07

Given the entry CGCCUG , report its measured normalized RNA/DNA level without ligand (log10).
2.06

Given the entry CGGCCC , report its measured normalized RNA/DNA level without ligand (log10).
2.09

Given the entry GUACCG , report its measured normalized RNA/DNA level without ligand (log10).
2.09

Given the entry ACUAAA , report its measured normalized RNA/DNA level without ligand (log10).
1.99

Given the entry CAAGCA , report its measured normalized RNA/DNA level without ligand (log10).
2.02

Given the entry GCCAGA , report its measured normalized RNA/DNA level without ligand (log10).
2.02

Given the entry CGUAGU , report its measured normalized RNA/DNA level without ligand (log10).
2.01

Given the entry UAUGCC , report its measured normalized RNA/DNA level without ligand (log10).
1.99

Given the entry GCAGAC , report its measured normalized RNA/DNA level without ligand (log10).
1.98

Given the entry UGGUGA , report its measured normalized RNA/DNA level without ligand (log10).
1.88

Given the entry AGCAGA , report its measured normalized RNA/DNA level without ligand (log10).
1.98

Given the entry UCAGAA , report its measured normalized RNA/DNA level without ligand (log10).
1.94

Given the entry AGUUUA , report its measured normalized RNA/DNA level without ligand (log10).
2

Given the entry ACCGCG , report its measured normalized RNA/DNA level without ligand (log10).
1.99

Given the entry GCCAUA , report its measured normalized RNA/DNA level without ligand (log10).
2.02

Given the entry UACCAG , report its measured normalized RNA/DNA level without ligand (log10).
1.86

Given the entry CAAAUC , report its measured normalized RNA/DNA level without ligand (log10).
2.05

Given the entry AACAUU , report its measured normalized RNA/DNA level without ligand (log10).
2.03

Given the entry UUAUCU , report its measured normalized RNA/DNA level without ligand (log10).
2.01

Given the entry UUGGCG , report its measured normalized RNA/DNA level without ligand (log10).
1.88

Given the entry CGGUAC , report its measured normalized RNA/DNA level without ligand (log10).
2.01

Given the entry CAACUU , report its measured normalized RNA/DNA level without ligand (log10).
2.04

Given the entry CUCCGA , report its measured normalized RNA/DNA level without ligand (log10).
2.06

Given the entry AUGAAG , report its measured normalized RNA/DNA level without ligand (log10).
1.84

Given the entry UCUGAG , report its measured normalized RNA/DNA level without ligand (log10).
1.75

Given the entry CACCAC , report its measured normalized RNA/DNA level without ligand (log10).
2

Given the entry CAUCCA , report its measured normalized RNA/DNA level without ligand (log10).
2.03

Given the entry CGUGCU , report its measured normalized RNA/DNA level without ligand (log10).
2.05

Given the entry AGAACC , report its measured normalized RNA/DNA level without ligand (log10).
2.02

Given the entry GGUACG , report its measured normalized RNA/DNA level without ligand (log10).
2.02

Given the entry GUACCC , report its measured normalized RNA/DNA level without ligand (log10).
2.02

Given the entry CAUCCG , report its measured normalized RNA/DNA level without ligand (log10).
2.08

Given the entry CACCAA , report its measured normalized RNA/DNA level without ligand (log10).
1.97

Given the entry CUUUAA , report its measured normalized RNA/DNA level without ligand (log10).
1.98
